Here the recorded Burst Release d2 is given for each entry.
assaySummary: in vitro release rates of estriol prodrugs from intravaginal rings
Format: physicochemical
conditionSet: ring, API loading 5.0 %, core polymer EVA28/2.5 (E3: EVA26/4.0), 37°C, day 2

molecule: C[C@]12CC[C@@H]3c4ccc(O)cc4CC[C@H]3[C@@H]1C[C@@H](O)[C@@H]2O
Burst Release d2 (µg): 294.5

molecule: CC(=O)Oc1ccc2c(c1)CCC1C2CC[C@@]2(C)C1C[C@@H](O)[C@@H]2O (stereo partly shown)
Burst Release d2 (µg): 1322.0

molecule: C[C@]12CCC3c4ccc(O)cc4CCC3C1C[C@@H](O)[C@@H]2OC(=O)C1CC1 (stereo partly shown)
Burst Release d2 (µg): 6229.4

molecule: C[C@]12CCC3c4ccc(OC(=O)C5CC5)cc4CCC3C1C[C@@H](O)[C@@H]2O (stereo partly shown)
Burst Release d2 (µg): 1369.8
